- Target Under Test: T1, cyno PD-1 (soluble analyte in SPR) (cyno)
- T1 construct: also called cynomolgus PD-1
- Assay Info: SPR (ProteOn XPR36), mAb captured on anti-human IgG Fc, cyno PD-1 as analyte, 25 C
Readout Type: kon (M⁻¹ s⁻¹)
The response must be a number in M⁻¹ s⁻¹ with no trailing unit.

[[record]]
binder = "PD1B1088 (antibody, human IgG1, kappa, V domains shown, also called VH PD1H405; VL PD1L651) VH: QVQLVQSGSELKKPGASVKVSCKASGYTFTDYSMHWVRQAPGQGLEWMGWINIETGEPTYAQGFTGRFVFSLDTSVSTAYLQISSLKAEDTAVYFCARDYYGTYFYAMDYWGQGTLVTVSS VL: EIVLTQSPATLSLSPGERATLSCTASSSFSSSYLHWYQQKPGLAPRLLIYSTSNLASGIPDRFSGSGSGTDYTLTISRLEPEDFAVYYCHQYHRSPLTFGQGTKLEIKR"
readout_type = "kon"
endpoint_unit = "M⁻¹ s⁻¹"
reported_result = 66100

[[record]]
binder = "PD1B1095 (antibody, human IgG1, kappa, V domains shown, also called VH PD1H587; VL PD1L652) VH: QVQLVQSGSELKKPGASVKVSCKASGYTFTDYSMHWVRQAPGQGLEWMGWINIETGWPTYAQGFTGRFVFSLDTSVSTAYLQISSLKAEDTAVYFCARDYYGTYFYAMDYWGQGTLVTVSS VL: EIVLTQSPATLSLSPGERATLSCTASSSVPSSYLHWYQQKPGLAPRLLIYSTSNLASGIPDRFSGSGSGTDYTLTISRLEPEDFAVYYCHQYHRSPLTFGQGTKLEIKR"
readout_type = "kon"
endpoint_unit = "M⁻¹ s⁻¹"
reported_result = 185000


Consider now this further binder.
Prompt: Give the reported value of kon for this record: PD1B1091 (antibody, human IgG1, kappa, V domains shown, also called VH PD1H586; VL PD1L651) VH: QVQLVQSGSELKKPGASVKVSCKASGYTFTDYSMHWVRQAPGQGLEWMGWINIETGHPTYAQGFTGRFVFSLDTSVSTAYLQISSLKAEDTAVYFCARDYYGTYFYAMDYWGQGTLVTVSS VL: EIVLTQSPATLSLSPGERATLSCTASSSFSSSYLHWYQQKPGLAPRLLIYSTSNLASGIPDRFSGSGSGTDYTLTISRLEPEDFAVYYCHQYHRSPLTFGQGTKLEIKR
Completion: 99100
